// provenance: PubChem BioAssay (NCATS)

biological target: Cytochrome P450 2C19 (Homo sapiens) (UniProt P33261); assay: qHTS Assay for Inhibitors and Substrates of Cytochrome P450 2C19 (AID 899); details: recombinant CYP2C19, luciferin-H EGE luminescence; series mostly up to 57.1 µM; further: nearly all actives have a fitted effect of over 60% in size
Sequence (P33261 whole entry, looked up): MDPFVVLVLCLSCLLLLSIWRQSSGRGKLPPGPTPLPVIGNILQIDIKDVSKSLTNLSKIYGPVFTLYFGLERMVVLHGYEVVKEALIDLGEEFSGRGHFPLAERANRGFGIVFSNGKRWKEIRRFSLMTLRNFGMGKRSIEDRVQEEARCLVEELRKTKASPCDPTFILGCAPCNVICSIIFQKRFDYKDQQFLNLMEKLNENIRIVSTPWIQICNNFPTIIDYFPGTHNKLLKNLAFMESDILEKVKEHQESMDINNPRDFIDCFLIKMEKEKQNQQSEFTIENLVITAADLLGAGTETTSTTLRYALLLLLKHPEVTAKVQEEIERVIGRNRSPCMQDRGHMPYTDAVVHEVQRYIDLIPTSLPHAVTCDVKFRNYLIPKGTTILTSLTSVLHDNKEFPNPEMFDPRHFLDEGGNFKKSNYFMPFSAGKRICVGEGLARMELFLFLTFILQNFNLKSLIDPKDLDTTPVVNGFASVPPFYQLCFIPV
Results filed as inconclusive are left out. Activity calls are given as the source filed them. The call rests on the fitted dose curve; in most records, active means well fitted inhibition curve with a large enough effect; inconclusive means small, poorly fitted or top-dose-only effect; inactive means no such curve, though single readings can be large or run the other way.
Outcome codes: yes (active), no (inactive)

> print(dat)
                                   compound  cat
1  CCOC(=O)c1c(C)[nH]c2ccc3c(c12)CN1CCc2cc(OC)ccc2[C@@H]1O3   no
2  NC1(C(=O)O)C[C@H](C(=O)O)[C@H](C(=O)O)C1 (stereo not given in full)  yes
3                         CCNCCCNCCCNCCCNCC   no
4                        O=C(O)[C@H]1CCCNC1   no
5  CCCCCCCC1=Cc2ccccc2C(CC(C)=O)N1C(=O)OC (stereo not given)  yes
